Each item that follows carries a reported EC50.
- testedSystem: Keap1 (Homo sapiens (Human), UniProt Q14145)
- Sequence (Q14145 whole entry): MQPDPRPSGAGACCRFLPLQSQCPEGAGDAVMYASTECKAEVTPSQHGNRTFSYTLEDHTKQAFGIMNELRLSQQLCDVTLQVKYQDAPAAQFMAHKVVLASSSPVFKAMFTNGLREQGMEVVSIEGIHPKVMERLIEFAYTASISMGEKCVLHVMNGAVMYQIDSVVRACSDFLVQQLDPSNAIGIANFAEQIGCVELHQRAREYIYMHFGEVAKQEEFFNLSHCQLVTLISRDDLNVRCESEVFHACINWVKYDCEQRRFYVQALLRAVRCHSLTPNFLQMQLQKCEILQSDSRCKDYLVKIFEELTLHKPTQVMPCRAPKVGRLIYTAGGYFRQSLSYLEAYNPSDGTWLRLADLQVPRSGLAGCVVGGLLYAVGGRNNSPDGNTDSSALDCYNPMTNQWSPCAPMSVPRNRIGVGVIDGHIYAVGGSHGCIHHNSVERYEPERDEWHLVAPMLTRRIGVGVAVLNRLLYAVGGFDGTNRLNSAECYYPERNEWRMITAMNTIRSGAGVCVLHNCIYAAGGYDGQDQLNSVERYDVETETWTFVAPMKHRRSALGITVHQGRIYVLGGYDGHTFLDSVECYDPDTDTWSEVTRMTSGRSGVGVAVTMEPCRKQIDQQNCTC
- measurementNotes: HEK293 ARE luciferase assay
- testConditions: HEK-293 ARE firefly luciferase transiently transfected cells; 18 h incubation; mean of 1 to 20 individual measurements

compound	EC50 [nM]
COC1(c2cncc(C)n2)C=C(C#N)C(=O)C2(CC2)C1 (single isomer, unassigned) [Compound 54]	363
COC1(c2nc(C)cs2)C=C(C#N)C(=O)C2(CC2)C1 (stereo not drawn) [Compound 140]	140
COC1(c2ncccc2C(F)(F)F)C=C(C#N)C(=O)C2(CCCC2)C1 (single isomer, unassigned) [Compound 66]	126
COC1(c2ncccc2C(F)(F)F)C=C(C#N)C(=O)C2(CC2)C1 (stereo not drawn) [Compound 133]	76
COC1(c2ncc(F)cc2-c2cncc(C#N)c2)C=C(C#N)C(=O)C(C)(C)C1 (stereo not drawn) [Compound 184]	121
COC1(c2cccc(-c3cnn(C)c3)n2)C=C(C#N)C(=O)C(C)(C)C1 (single isomer, unassigned) [Compound 107]	37
COC1(c2ncc(F)cc2-c2cncc(S(=O)(=O)C(C)C)c2)C=C(C#N)C(=O)C(C)(C)C1 (single isomer, unassigned)	8
COC1(c2ncc(F)cc2-c2ccnc(C)c2C)C=C(C#N)C(=O)C(C)(C)C1 (stereo not drawn) [Compound 175]	174
COC1(c2ncc(Cl)cc2F)C=C(C#N)C(=O)C2(CC2)C1 (single isomer, unassigned) [Compound 61]	79
CCCc1cccnc1C1(OC)C=C(C#N)C(=O)C(C)(C)C1 (stereo not drawn) [Compound 169]	173
COC1(c2ncc(Cl)cc2C(F)(F)F)C=C(C#N)C(=O)C(C)(C)C1 (single isomer, unassigned)	231
COC1(c2ncc(F)cc2F)C=C(C#N)C(=O)C2(CC2)C1 (single isomer, unassigned) [Compound 60]	153
COC1(c2ncc(F)cc2-c2cccn(C)c2=O)C=C(C#N)C(=O)C(C)(C)C1 (single isomer, unassigned) [Compound 75]	36
COC1(c2ccc(F)cn2)C=C(C#N)C(=O)C2(CCCC2)C1 (single isomer, unassigned) [Compound 67]	239
COC1(c2ncc(F)cc2-c2ccnc(C)c2)C=C(C#N)C(=O)C(C)(C)C1 (stereo not drawn) [Compound 170]	12
